Biological target: MBP-FoxP1dN (Mus musculus, UniProt P58462 326-579)
Sequence: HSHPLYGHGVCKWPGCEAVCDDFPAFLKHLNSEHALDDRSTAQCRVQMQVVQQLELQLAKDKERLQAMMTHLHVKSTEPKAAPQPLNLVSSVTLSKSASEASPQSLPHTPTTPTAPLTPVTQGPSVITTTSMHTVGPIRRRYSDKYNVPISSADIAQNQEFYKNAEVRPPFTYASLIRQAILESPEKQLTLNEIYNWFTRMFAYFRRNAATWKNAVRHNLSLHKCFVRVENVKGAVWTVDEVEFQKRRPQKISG
Test: PD-seq (MBP pull-down with sequencing); 20 mM Tris-HCl pH 7.5, 100 mM NaCl, 1.5 mM MgCl2, 0.4 uM protein, 0.1 uM dsDNA library, 30 min, room temperature, amylose pull-down; high values mean tight binding
Details: protein: recombinant; tags: His6-MBP; chain copies: 2; dsDNA, one strand shown
In all, about 16,000 sequences were measured (“rpm ratio (pull-down/input)”: median about 0.94, highest 2% from about 1.7 on). The sample as a whole holds a higher share of the highest values than the screen did.
quantity.measured: binding signal

GATGATTGTTCTCCCAGCTGATGAATTTTGTTGGTCGAGTAAACAAATTTTCCTAATCTTTCTGTTCAAGCGCCATCTAC ... 2.26 RPM ratio (pull-down/input)
GATGATTGTTCTCCCAGCTGATGAATTTGGTTGGTCGAGTAAACAAATTTTCCTAATCTTTCTGTTCAAGCGCCATCTAC ... 0.868 RPM ratio (pull-down/input)
GATGATTGTTCTCCCAGCTGATGAATTACATTCCTCGAGTAAACAAATTTTCCTAATCTTTCTGTTCAAGCGCCATCTAC ... 1.2 RPM ratio (pull-down/input)
GATGATTGTTCTCCCAGCTGATGAATTCTTTTGGTCGAGTAAACAAATTTTCCTAATCTTTCTGTTCAAGCGCCATCTAC ... 1 RPM ratio (pull-down/input)
GATGATTGTTCTCCCAGCTGATGAATTCCTCCTGTCGAGTAAACAAATTTTCCTAATCTTTCTGTTCAAGCGCCATCTAC ... 0.729 RPM ratio (pull-down/input)
GATGATTGTTCTCCCAGCTGATGAATTGGTCTGGTCGAGTAAACAAATTTTCCTAATCTTTCTGTTCAAGCGCCATCTAC ... 0.807 RPM ratio (pull-down/input)
GATGATTGTTCTCCCAGCTGATGAATTTGTTTGGTCGAGTAAACAAATTTTCCTAATCTTTCTGTTCAAGCGCCATCTAC ... 2.1 RPM ratio (pull-down/input)
GATGATTGTTCTCCCAGCTGATGAATTGAGTGGCTCGAGTAAACAAATTTTCCTAATCTTTCTGTTCAAGCGCCATCTAC ... 0.823 RPM ratio (pull-down/input)
GATGATTGTTCTCCCAGCTGATGAATTTTTTTGGTCGAGTAAACAAATTTTCCTAATCTTTCTGTTCAAGCGCCATCTAC ... 0.952 RPM ratio (pull-down/input)
GATGATTGTTCTCCCAGCTGATGAATTCTCCTTGTCGAGTAAACAAATTTTCCTAATCTTTCTGTTCAAGCGCCATCTAC ... 0.774 RPM ratio (pull-down/input)

For each listed entry, give its binding signal.
1. GATGATTGTTCTCCCAGCTGATGAATTCCTGTTGTCGAGTAAACAAATTTTCCTAATCTTTCTGTTCAAGCGCCATCTAC
2. GATGATTGTTCTCCCAGCTGATGAATTTGTAGTATCGAGTAAACAAATTTTCCTAATCTTTCTGTTCAAGCGCCATCTAC
3. GATGATTGTTCTCCCAGCTGATGAATTAGTTGCATCGAGTAAACAAATTTTCCTAATCTTTCTGTTCAAGCGCCATCTAC
4. GATGATTGTTCTCCCAGCTGATGAATTGTTTTGGTCGAGTAAACAAATTTTCCTAATCTTTCTGTTCAAGCGCCATCTAC

["2.34 RPM ratio (pull-down/input)", "1.47 RPM ratio (pull-down/input)", "1.65 RPM ratio (pull-down/input)", "2.02 RPM ratio (pull-down/input)"]

====

Biological target: MBP-FoxP1dN (Mus musculus, UniProt P58462 326-579)
Sequence: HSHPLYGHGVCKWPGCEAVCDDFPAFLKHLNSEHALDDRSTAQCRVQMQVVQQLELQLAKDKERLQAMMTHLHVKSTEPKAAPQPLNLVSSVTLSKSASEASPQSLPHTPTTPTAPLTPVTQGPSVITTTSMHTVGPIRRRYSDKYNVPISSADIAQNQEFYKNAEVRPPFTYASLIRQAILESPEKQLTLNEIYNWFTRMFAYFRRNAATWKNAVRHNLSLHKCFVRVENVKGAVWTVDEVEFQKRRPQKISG
Assay: PD-seq (MBP pull-down with sequencing); 20 mM Tris-HCl pH 7.5, 100 mM NaCl, 1.5 mM MgCl2, 0.4 uM protein, 0.1 uM dsDNA library, 30 min, room temperature, amylose pull-down; high values mean tight binding
Settings: protein: recombinant; tags: His6-MBP; chain copies: 2; dsDNA, one strand shown
In all, about 16,000 sequences were measured (“rpm ratio (pull-down/input)”: median about 0.94, highest 2% from about 1.7 on). Shown is part of a subset that was picked to be rich in the highest values.
quantity.measured: binding signal

Reference set, count: 3
GATGATTGTTCTCCCAGCTGATGAATTAATAACATCGAGTAAACAAATTTTCCTAATCTTTCTGTTCAAGCGCCATCTAC ... 2.02 RPM ratio (pull-down/input)
GATGATTGTTCTCCCAGCTGATGAATTAAATAAATCGAGTAAACAAATTTTCCTAATCTTTCTGTTCAAGCGCCATCTAC ... 1.49 RPM ratio (pull-down/input)
GATGATTGTTCTCCCAGCTGATGAATTAACAACATCGAGTAAACAAATTTTCCTAATCTTTCTGTTCAAGCGCCATCTAC ... 2.17 RPM ratio (pull-down/input)

# next sequence below
Item GATGATTGTTCTCCCAGCTGATGAATTAACATCATCGAGTAAACAAATTTTCCTAATCTTTCTGTTCAAGCGCCATCTAC has what recorded binding signal?
1.31 RPM ratio (pull-down/input)

====

Target: MBP-FoxP1dN (Mus musculus, UniProt P58462 326-579)
Sequence: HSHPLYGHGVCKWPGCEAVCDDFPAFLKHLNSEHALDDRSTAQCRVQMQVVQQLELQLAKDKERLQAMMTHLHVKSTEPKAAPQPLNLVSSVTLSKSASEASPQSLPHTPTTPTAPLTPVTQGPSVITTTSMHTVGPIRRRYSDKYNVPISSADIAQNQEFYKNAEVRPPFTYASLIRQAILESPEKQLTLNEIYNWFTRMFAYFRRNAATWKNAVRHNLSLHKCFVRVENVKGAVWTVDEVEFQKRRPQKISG
Assay: PD-seq (MBP pull-down with sequencing); 20 mM Tris-HCl pH 7.5, 100 mM NaCl, 1.5 mM MgCl2, 0.4 uM protein, 0.1 uM dsDNA library, 30 min, room temperature, amylose pull-down; high values mean tight binding
Details: protein: recombinant; tags: His6-MBP; chain copies: 2; dsDNA, one strand shown
In all, about 16,000 sequences were measured (“rpm ratio (pull-down/input)”: median about 0.94, highest 2% from about 1.7 on). The list comes from a sample in which the highest values are over-represented; it also holds close analogues and randomly drawn sequences.
quantity.measured: binding signal

GATGATTGTTCTCCCAGCTGATGAATTAGATTGCTCGAGTAAACAAATTTTCCTAATCTTTCTGTTCAAGCGCCATCTAC ... 0.987 RPM ratio (pull-down/input)

For each listed entry, give its binding signal.
1. GATGATTGTTCTCCCAGCTGATGAATTGCTCTTCTCGAGTAAACAAATTTTCCTAATCTTTCTGTTCAAGCGCCATCTAC
2. GATGATTGTTCTCCCAGCTGATGAATTTTAGAGCTCGAGTAAACAAATTTTCCTAATCTTTCTGTTCAAGCGCCATCTAC
3. GATGATTGTTCTCCCAGCTGATGAATTGCACTCCTCGAGTAAACAAATTTTCCTAATCTTTCTGTTCAAGCGCCATCTAC
4. GATGATTGTTCTCCCAGCTGATGAATTTGCCTCCTCGAGTAAACAAATTTTCCTAATCTTTCTGTTCAAGCGCCATCTAC
5. GATGATTGTTCTCCCAGCTGATGAATTGTTTTCCTCGAGTAAACAAATTTTCCTAATCTTTCTGTTCAAGCGCCATCTAC
6. GATGATTGTTCTCCCAGCTGATGAATTGGATTCTTCGAGTAAACAAATTTTCCTAATCTTTCTGTTCAAGCGCCATCTAC
7. GATGATTGTTCTCCCAGCTGATGAATTTTTTGCCTCGAGTAAACAAATTTTCCTAATCTTTCTGTTCAAGCGCCATCTAC

0.889 RPM ratio (pull-down/input)
0.77 RPM ratio (pull-down/input)
1.15 RPM ratio (pull-down/input)
0.95 RPM ratio (pull-down/input)
2.36 RPM ratio (pull-down/input)
0.813 RPM ratio (pull-down/input)
0.956 RPM ratio (pull-down/input)
